- System: CACO2
- ASSAY_METHOD_TEXT: SRB antiproliferation assay, CACO2 colorectal cancer cells
- SETUP_CONDITIONS: read-out: Cytotoxicity (as of %Control) IC50 value, CACO2, 72 h incubations, mean ± SD, n = 3
RESULT_TYPE: IC50

1) CC[C@H](C)C(=O)O[C@H]1C[C@@H](C)C=C2C=C[C@H](C)[C@H](CC[C@@H]3C[C@@H](O)CC(=O)O3)[C@H]21 [Lovastatin] | > 100 µM

====

- Tested on: SW480
- ASSAY_METHOD_TEXT: SRB antiproliferation assay, SW480 colorectal cancer cells
- Type: cell-based
- SETUP_CONDITIONS: Homo sapiens, SW480, 72 h, read-out: Cytotoxicity (as of %Control) IC50 value, SW480, SRB, 72 h incubations, mean ± SD, n = 3
RESULT_TYPE: IC50 (µM)

1) COCc1c(C(C)C)nc(C(C)C)c(/C=C/[C@@H](O)C[C@@H](O)CC(=O)O)c1-c1ccc(F)cc1 | 6

====

- Tested on: SW620
- ASSAY_METHOD_TEXT: SRB antiproliferation assay, SW620 colorectal cancer cells
- Type: cell-based
- SETUP_CONDITIONS: read-out: Cytotoxicity (as of %Control) IC50 value, SW620, 72 h incubations, mean ± SD, n = 3
RESULT_TYPE: IC50 (µM)

1. CC(C)c1nc(N(C)S(C)(=O)=O)nc(-c2ccc(F)cc2)c1/C=C/[C@@H](O)C[C@@H](O)CC(=O)O | 15

====

- System: PANC1
- ASSAY_METHOD_TEXT: SRB antiproliferation assay, PANC1 pancreatic cells
- Type: cell-based
- SETUP_CONDITIONS: Homo sapiens, PANC-1, 72 h, read-out: Cytotoxicity (as of %Control) IC50 value, PANC 1, SRB, 72 h incubations, mean ± SD, n = 3
pIC50: −log10 of the molar value.
RESULT_TYPE: pIC50

1. CC(C)c1nc(N(C)S(C)(=O)=O)nc(-c2ccc(F)cc2)c1/C=C/[C@@H](O)C[C@@H](O)CC(=O)O [Rosuvastatin] | < 4.30
2. CC(C)n1c(/C=C/C(O)CC(O)CC(=O)O)c(-c2ccc(F)cc2)c2ccccc21 (centres unmarked) [Fluvastatin] | < 4.30
3. COCc1c(C(C)C)nc(C(C)C)c(/C=C/[C@@H](O)C[C@@H](O)CC(=O)O)c1-c1ccc(F)cc1 [Cerivastatin] | > 4.30
4. CC[C@H](C)C(=O)O[C@H]1CCC=C2C=C[C@H](C)[C@H](CC[C@@H]3C[C@@H](O)CC(=O)O3)[C@H]21 [Mevastatin] | < 4.30
5. CC[C@H](C)C(=O)O[C@H]1C[C@H](O)C=C2C=C[C@H](C)[C@H](CC[C@@H](O)C[C@@H](O)CC(=O)O)[C@H]21 [Pravastatin] | < 4.30

====

- Test system: HCT116
- ASSAY_METHOD_TEXT: SRB antiproliferation assay, HCT116 colorectal cancer cells
- Type: cell-based
- SETUP_CONDITIONS: Homo sapiens, HCT-116, 72 h, read-out: Cytotoxicity (as of %Control) IC50 value, HCT116, SRB, 72 h incubations, mean ± SD, n = 3
pIC50: −log10 of the molar value.
RESULT_TYPE: pIC50

1. COCc1c(C(C)C)nc(C(C)C)c(/C=C/[C@@H](O)C[C@@H](O)CC(=O)O)c1-c1ccc(F)cc1 | 5.54

// provenance: paper PMC9971447
